# testedOn: T1, extracellular domain of rhesus monkey BCMA (rhesus monkey, UniProt F7FFA0 1-53)
# T1 construct: extracellular domain; also called RhBCMA
# measurementProtocol: Octet BLI; Fab 200 nM

- binder: "AB200-R1a-Fab_Vk20 (Fab, V domains shown) VH: QVQLVQSGAEVKKPGSSVKVSCKASGGTFSNYWMHWVRQAPGQGLEWMGATYRGHSDTYYNQKFKGRVTITADKSTSTAYMELSSLRSEDTAVYYCARGAIYHGYDVLDNWGQGTLVTVSS VL: DIQMTQSPSSLSASVGDRVTITCSASQDISNFLNWYQQKPGKAPKLLIYYTSDLHSGVPSRFSGSGSGTDFTLTISSLQPEDFATYYCQQYYKLPWTFGQGTKLEIKR"
  Kd (nM): 13.5
- binder: "AB200-R1a-Fab_Vk31 (Fab, V domains shown) VH: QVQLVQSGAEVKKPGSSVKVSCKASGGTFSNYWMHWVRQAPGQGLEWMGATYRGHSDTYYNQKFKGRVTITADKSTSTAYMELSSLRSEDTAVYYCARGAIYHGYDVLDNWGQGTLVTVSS VL: DIQMTQSPSSLSASVGDRVTITCSASQDISNYLNWYQQKPGKAPKLLIYYTSNIHIGVPSRFSGSGSGTDFTLTISSLQPEDFATYYCQQYRKLPWSFGQGTKLEIKR"
  Kd (nM): 8.96
